ASSAY_TARGET: PD-1/PD-L1 (Homo sapiens)
Construct: purchased Cisbio 63ADK000CPDPEB
ASSAY_NOTES: PD-1/PD-L1 binding assay (HTRF, PPI-HTRF)
TEST_PARAMETERS: HTRF PD1/PD-L1 binding assay kit; 10 nM Tag1-PD-L1; 25° C.
ENDPOINT_NAME: IC50 (nM)

**Query** For the molecule Cc1cc(/C=C/c2nccc(-c3cccc(NC(=O)c4ccc(CN5CC[C@@H](O)C5)cn4)c3C)c2C#N)c(C2CC2)cc1CN1CC[C@@H](C(=O)O)C1 , give its measured IC50 value.
**Result** 1

**Query** Give recorded IC50. Cc1cc(/C=C/c2cccc(-c3cccc(Nc4nccc5cc(CN6CC[C@@H](O)C6)cnc45)c3C)c2C)c(C(F)(F)F)cc1CN1CC[C@@H](C(=O)O)C1
**Result** 1

**Query** Output IC50 of COc1cc(/C=C/c2cccc(-c3cccc(NC(=O)c4ccc(CN5CC[C@@H](O)C5)cn4)c3C)c2Cl)c(C(F)(F)F)cc1CN1CC[C@@H](C(=O)O)C1
**Result** 1

###

ASSAY_TARGET: PD-1/PD-L1 (Homo sapiens, UniProt Q9NZQ7)
Construct: purchased Cisbio 63ADK000CPDPEB
Sequence (Q9NZQ7 19-238 limits assumed): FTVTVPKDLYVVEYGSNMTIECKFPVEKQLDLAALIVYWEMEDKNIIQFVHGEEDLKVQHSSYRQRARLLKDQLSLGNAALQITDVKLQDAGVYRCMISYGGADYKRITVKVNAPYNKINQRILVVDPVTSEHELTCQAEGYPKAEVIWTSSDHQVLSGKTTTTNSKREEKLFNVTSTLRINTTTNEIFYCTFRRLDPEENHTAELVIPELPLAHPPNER
ASSAY_NOTES: PD-1/PD-L1 binding assay (HTRF, PPI-HTRF)
TEST_PARAMETERS: HTRF PD1/PD-L1 binding assay kit; 10 nM Tag1-PD-L1; 25° C.
ENDPOINT_NAME: IC50 (nM)

**Query** Annotate the compound Cc1cc(/C=C/c2nccc(-c3cccc(-c4nc5cc(CN6CC[C@@H](O)C6)ccc5o4)c3C)c2C#N)c(Cl)cc1CN1CC[C@@H](C(=O)O)C1 with its measured IC50.
**Result** 1

1: COc1cc(C(=O)Nc2cccc(-c3cccc(/C=C/c4cc(OC)c(CN5CCC[C@H]5C(=O)O)cc4C(F)(F)F)c3C)c2C)ncc1CN1CC[C@@H](O)C1
2: COc1cc(/C=C/c2cccc(-c3cccc(-c4nc5cc(CN6CC[C@@H](O)C6)cc(C#N)c5o4)c3C)c2C)c(C(F)(F)F)cc1CN1CCC[C@H]1C(=O)O
**Query** Endpoint returns whichever of 1 and 2 has the numerically higher IC50. Refer to your chosen item by its label in the answer.
**Result** 2
(2: 2 nM, 1: 1 nM)

###

ASSAY_TARGET: PD-1/PD-L1 (Homo sapiens, UniProt Q9NZQ7)
Construct: purchased Cisbio 63ADK000CPDPEB
ASSAY_NOTES: PD-1/PD-L1 binding assay (HTRF, PPI-HTRF)
TEST_PARAMETERS: HTRF PD1/PD-L1 binding assay kit; 10 nM Tag1-PD-L1; 25° C.
ENDPOINT_NAME: IC50 (nM)

**Query** Respond only with IC50 recorded for COc1cc(C(=O)Nc2cccc(-c3cccc(/C=C/c4cc(OC)c(CN5CC[C@@H](C(=O)O)C5)cc4C(F)(F)F)c3C)c2C)ncc1CN1CC(CO)C1
**Result** 1

1: COc1cc(/C=C/c2cccc(-c3cccc(NC(=O)c4nc5c(n4C)CCN(CCO)C5)c3Cl)c2C)c(C(F)(F)F)cc1CN1CCCC[C@H]1C(=O)O
2: Cc1c(NC(=O)c2ccc(CN3CC[C@@H](O)C3)cn2)cccc1-c1ccnc(/C=C/c2ccc(CN3CC[C@@H](C(=O)O)C3)cn2)c1C#N
**Query** Hi there, can you help? I need to know whether 1 or 2 has lower measured IC50. To answer, give the label that identifies your chosen option.
**Result** 1
